B1: mRNA-splicing (parent)
chain: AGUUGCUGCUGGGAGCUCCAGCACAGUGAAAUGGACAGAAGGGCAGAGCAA

Variants of: B1
test: exon inclusion enrichment index; higher = more inclusion; WT1 exon 5 minigene, HEK293
Decision: exon inclusion enrichment index compared against 0.2; not below it gives Fulfilled, below it gives Not fulfilled.

As a guide, the following entries are already answered.
variant_id	cat
U17C C18U	Fulfilled
G5U G8U C9U C22G A23U	Not fulfilled
C6A U7A C9A U10A C24G A25G	Fulfilled
G5C C6A U7C G8A U10A A37C G38C	Not fulfilled

### Prompt Check the entry G5A U7C G8A U10C G26C : does exon inclusion enrichment index equal or exceed 0.2?
### Response Fulfilled

### Prompt Thanks! And G5A U7C G8U C9U U10C ?
### Response Fulfilled

### Prompt Consider next the variant G5U G8U C9U A45C G46A in the same way.
### Response Not fulfilled

### Prompt Try G5C C6U G8C C9U U10C A31U next.
### Response Fulfilled
